# measurement.target: Prostaglandin G/H synthase 2 (Homo sapiens)
# Sequence (P35354 whole entry): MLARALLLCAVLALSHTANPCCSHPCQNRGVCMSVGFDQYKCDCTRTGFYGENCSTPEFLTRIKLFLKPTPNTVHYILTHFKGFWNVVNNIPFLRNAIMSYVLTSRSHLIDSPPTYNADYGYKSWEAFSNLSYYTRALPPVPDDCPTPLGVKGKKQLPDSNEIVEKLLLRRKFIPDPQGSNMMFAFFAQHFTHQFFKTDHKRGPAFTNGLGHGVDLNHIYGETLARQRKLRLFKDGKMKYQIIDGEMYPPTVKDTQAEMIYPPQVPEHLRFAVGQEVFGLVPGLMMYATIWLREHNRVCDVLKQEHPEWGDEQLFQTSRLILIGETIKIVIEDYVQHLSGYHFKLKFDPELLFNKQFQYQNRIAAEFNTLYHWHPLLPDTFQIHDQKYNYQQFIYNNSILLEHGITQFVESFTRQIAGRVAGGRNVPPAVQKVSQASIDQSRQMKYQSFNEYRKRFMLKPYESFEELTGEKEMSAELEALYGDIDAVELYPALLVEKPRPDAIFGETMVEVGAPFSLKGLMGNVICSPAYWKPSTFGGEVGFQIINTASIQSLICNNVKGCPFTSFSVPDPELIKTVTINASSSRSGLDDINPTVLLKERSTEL
# Type: tissue-based, Blood
experimental.endpoint: IC50 (µM)

Use the examples below as a reference point.
(Q) Lab note: need IC50 with Prostaglandin G/H synthase 2 (Homo sapiens) for entry CS(=O)(=O)c1ccc(C2=C(c3cc(Cl)ccn3)C(=O)CC2)cc1 , please look it up.
(A) 0.52

(Q) Item: CS(=O)(=O)c1ccc(C2=C(c3ccc(F)c(F)c3)C(=O)CC2)cc1 Test system: Prostaglandin G/H synthase 2 (Homo sapiens) Read-out: IC50 Value: ?
(A) 0.21

(Q) # value lookup — system Prostaglandin G/H synthase 2 (Homo sapiens), readout IC50, item CC(C)(C)C#CC1=C(c2ccc(S(C)(=O)=O)cc2)CCC1=O
(A) 5.2

(Q) What IC50 appears in the records for this compound with Prostaglandin G/H synthase 2 (Homo sapiens)? CS(=O)(=O)c1ccc(C2=C(c3cc(F)cc(F)c3)C(=O)CC2)cc1
(A) 0.62

(Q) Checklist item: IC50 tested on Prostaglandin G/H synthase 2 (Homo sapiens), entry CS(=O)(=O)c1ccc(C2=C(c3cncc(Br)c3)C(=O)CC2)cc1 , value?
(A) 1.7

(a) CS(=O)(=O)c1ccc(C2=C(c3ccc(Cl)c(F)c3)C(=O)CC2)cc1
(b) CS(=O)(=O)c1ccc(C2=C(c3cc(Br)ccn3)C(=O)CC2)cc1
(c) CS(=O)(=O)c1ccc(C2=C(c3ccc(F)c(Cl)c3)C(=O)CC2)cc1
(d) CS(=O)(=O)c1ccc(C2=C(c3ccccn3)C(=O)CC2)cc1
(Q) Hello, I need these entries ordered by IC50, highest reading first. Thanks! Answer by writing out the labels in the requested order.
(A) d, b, a, c

(A) CS(=O)(=O)c1ccc(C2=C(C#Cc3ccccc3)C(=O)CC2)cc1
(B) CS(=O)(=O)c1ccc(C2=C(c3cccc(F)c3)C(=O)CC2)cc1
(C) CS(=O)(=O)c1ccc(C2=C(c3ccc(F)cc3)C(=O)CC2)cc1
(Q) Put the items in sequence by IC50, from largest down. The response must list the labels following the requested ordering.
(A) A, B, C

(A) CS(=O)(=O)c1ccc(C2=C(c3cc4ccccc4s3)C(=O)CC2)cc1
(B) CS(=O)(=O)c1ccc(C2=C(/C=C/c3ccc(F)cc3)C(=O)CC2)cc1
(Q) Quick check, higher IC50 between A and B ? Pick one; state its label.
(A) B

* * *

# measurement.target: Prostaglandin G/H synthase 1 (Homo sapiens)
# Sequence (P23219 whole entry): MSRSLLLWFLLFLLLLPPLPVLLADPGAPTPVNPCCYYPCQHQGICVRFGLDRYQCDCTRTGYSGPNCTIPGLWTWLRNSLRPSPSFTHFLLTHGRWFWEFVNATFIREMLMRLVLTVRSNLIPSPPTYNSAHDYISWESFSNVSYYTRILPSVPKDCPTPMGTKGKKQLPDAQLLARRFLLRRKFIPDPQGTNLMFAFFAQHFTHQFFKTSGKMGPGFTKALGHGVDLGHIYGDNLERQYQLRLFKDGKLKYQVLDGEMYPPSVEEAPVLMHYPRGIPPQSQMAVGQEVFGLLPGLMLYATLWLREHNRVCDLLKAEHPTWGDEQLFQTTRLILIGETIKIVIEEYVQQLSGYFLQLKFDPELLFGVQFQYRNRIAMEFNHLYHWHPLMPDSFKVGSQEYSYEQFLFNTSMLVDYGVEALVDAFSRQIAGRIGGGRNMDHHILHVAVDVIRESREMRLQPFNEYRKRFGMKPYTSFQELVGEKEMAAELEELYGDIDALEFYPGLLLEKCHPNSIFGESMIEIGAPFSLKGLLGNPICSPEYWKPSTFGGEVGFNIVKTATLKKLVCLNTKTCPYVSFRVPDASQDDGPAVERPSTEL
# Assay type: tissue-based, Blood
# Description: In vitro potency against human Prostaglandin G/H synthase 1 (hCOX-1) in the human whole blood assay.
experimental.endpoint: IC50 (µM)

Worked examples follow.
(Q) Look up IC50 for this compound: CS(=O)(=O)c1ccc(C2=C(c3ccc(F)cc3)C(=O)CC2)cc1
(A) 3.7

(Q) State the recorded IC50 for this entry: CS(=O)(=O)c1ccc(C2=C(c3cc(F)cc(F)c3)C(=O)CC2)cc1
(A) 61

(Q) If you can, please state the reported IC50 value of CS(=O)(=O)c1ccc(C2=C(c3ccccc3)C(=O)CC2)cc1 .
(A) 4.1

(Q) Could you tell me which IC50 is on file for CS(=O)(=O)c1ccc(C2=C(c3ccc(F)c(F)c3)C(=O)CC2)cc1 ?
(A) 3.2

(Q) Could you share which IC50 value was measured for CS(=O)(=O)c1ccc(C2=C(c3cc(Cl)ccn3)C(=O)CC2)cc1 ?
(A) 34

(P) CS(=O)(=O)c1ccc(C2=C(Oc3cc(F)cc(F)c3)C(=O)CC2)cc1
(Q) Cc1ccncc1C1=C(c2ccc(S(C)(=O)=O)cc2)CCC1=O
(R) CS(=O)(=O)c1ccc(C2=C(c3ccc(Cl)c(F)c3)C(=O)CC2)cc1
(S) CS(=O)(=O)c1ccc(C2=C(/C=C/c3ccc(F)cc3)C(=O)CC2)cc1
(Q) Let's sort these by IC50, smallest first. Go ahead? Form entry: labels listed in requested order.
(A) R, Q, S, P
(R: 0.1 µM, Q: 4.1 µM, S: 27 µM, P: 94 µM)
